- test: Phase I five-way crossover: intranasal and sublingual naloxone spray 8 mg and 16 mg versus 0.4 mg intramuscular, plasma concentrations
- Format: in vivo, human subjects
- study.conditions: human, other: sublingual; 16 mg SL; plasma, mean ± SD
readout.kind: concentration at 0.13 h (ng/mL)
// note: answer is a bare numeric in ng/mL

If you can, please state the reported concentration at 0.13 h value of C=CCN1CC[C@]23c4c5ccc(O)c4O[C@H]2C(=O)CC[C@@]3(O)[C@H]1C5 .
3.16

---

- test: Phase I five-way crossover: intranasal and sublingual naloxone spray 8 mg and 16 mg versus 0.4 mg intramuscular, plasma concentrations
- Format: in vivo, human subjects
- study.conditions: human, other: intranasal; 8 mg IN; plasma, mean ± SD
readout.kind: concentration at 0.07 h (ng/mL)
Field: numeric (ng/mL). Do not append units.

Would you mind telling me what concentration at 0.07 h value was observed for C=CCN1CC[C@]23c4c5ccc(O)c4O[C@H]2C(=O)CC[C@@]3(O)[C@H]1C5 ?
13.9

---

- test: Phase I five-way crossover: intranasal and sublingual naloxone spray 8 mg and 16 mg versus 0.4 mg intramuscular, plasma concentrations
- Assay type: in vivo, human subjects
- study.conditions: human, other: intranasal; 8 mg IN; plasma, mean ± SD
- Protocol: 145 subjects were randomly assigned to one of five groups including 8 milligrams sublingual dose, 16 milligrams sublingual dose, 8 milligrams intranasal dose, 16 milligrams intranasal dose and 0.4 milligram naloxone dose. Plasma concentrations were taken at pre-dose, 0.03, 0.07, 0.1, 0.13, 0.17, 0.25, 0.5, 1, 2 4, 8 and 12 hours' post-dose.
readout.kind: concentration at 0.13 h (ng/mL)
Give just the numeric value; ng/mL need not be written.

Need concentration at 0.13 h of C=CCN1CC[C@]23c4c5ccc(O)c4O[C@H]2C(=O)CC[C@@]3(O)[C@H]1C5 [naloxone, Naloxone] , thanks.
20.5

---

- test: Phase I five-way crossover: intranasal and sublingual naloxone spray 8 mg and 16 mg versus 0.4 mg intramuscular, plasma concentrations
- Format: in vivo, human subjects
- study.conditions: human, other: intranasal; 16 mg IN; plasma, mean ± SD
readout.kind: concentration at 0.5 h (ng/mL)
A number alone suffices; assume ng/mL.

What does the record list as concentration at 0.5 h for C=CCN1CC[C@]23c4c5ccc(O)c4O[C@H]2C(=O)CC[C@@]3(O)[C@H]1C5 [naloxone, Naloxone] ?
22.4

---

- test: Phase I five-way crossover: intranasal and sublingual naloxone spray 8 mg and 16 mg versus 0.4 mg intramuscular, plasma concentrations
- Type: in vivo, human subjects
- study.conditions: human, plasma, other: intranasal; 8 mg IN; time-zero to 1 hour post dose
readout.kind: AUC (µg·h/mL)
Numbers only; they are read as µg·h/mL.

Can you look up the measured AUC of C=CCN1CC[C@]23c4c5ccc(O)c4O[C@H]2C(=O)CC[C@@]3(O)[C@H]1C5 [naloxone, Naloxone] for me?
0.0112

---

- test: Phase I five-way crossover: intranasal and sublingual naloxone spray 8 mg and 16 mg versus 0.4 mg intramuscular, plasma concentrations
- Format: in vivo, human subjects
- study.conditions: human, other: sublingual; 8 mg SL; plasma, mean ± SD
readout.kind: concentration at 0.1 h (ng/mL)
Please respond with the number in ng/mL and leave the unit unwritten.

// returns reported concentration at 0.1 h for input C=CCN1CC[C@]23c4c5ccc(O)c4O[C@H]2C(=O)CC[C@@]3(O)[C@H]1C5
0.88

---

- test: Phase I five-way crossover: intranasal and sublingual naloxone spray 8 mg and 16 mg versus 0.4 mg intramuscular, plasma concentrations
- Format: in vivo, human subjects
- study.conditions: human, other: sublingual; 16 mg SL; plasma, mean ± SD
readout.kind: concentration at 0.07 h (ng/mL)
Give the value in ng/mL but do not write ng/mL after it.

Fill blank: measured concentration at 0.07 h of the molecule C=CCN1CC[C@]23c4c5ccc(O)c4O[C@H]2C(=O)CC[C@@]3(O)[C@H]1C5 is ____.
1.69
